Quick reference for pEC50 among some compounds
studySystem: human β2 adrenergic receptor (Homo sapiens, UniProt P07550)
Sequence (P07550 whole entry): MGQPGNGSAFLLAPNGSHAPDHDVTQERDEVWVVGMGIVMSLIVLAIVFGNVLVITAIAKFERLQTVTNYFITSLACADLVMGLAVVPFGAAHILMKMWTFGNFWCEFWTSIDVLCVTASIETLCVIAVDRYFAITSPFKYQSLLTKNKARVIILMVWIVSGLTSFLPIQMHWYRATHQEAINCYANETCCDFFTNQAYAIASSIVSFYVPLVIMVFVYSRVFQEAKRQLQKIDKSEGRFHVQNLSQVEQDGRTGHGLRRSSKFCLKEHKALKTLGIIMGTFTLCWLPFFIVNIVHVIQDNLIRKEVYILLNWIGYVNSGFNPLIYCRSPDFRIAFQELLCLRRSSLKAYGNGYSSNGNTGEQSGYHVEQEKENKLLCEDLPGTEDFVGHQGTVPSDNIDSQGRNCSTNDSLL
assayNotes: β2 cAMP EC50 in CHO cells recombinantly expressing the human β2 adrenergic receptor (cAMP-Flashplate)
runParameters: CHOhβ2 cells, 1 hour incubation
pEC50: −log10 of the molar value.
quantity: pEC50

smilesnotation=CC(C)(Cc1cccc(CC(=O)NCc2ccccc2)c1)NC[C@H](O)c1ccc(O)c(NS(C)(=O)=O)c1 quantity=pEC50 valuereported=10.70
smilesnotation=CC(C)(Cc1cccc(CC(=O)NCCCc2ccccc2)c1)NC[C@H](O)c1ccc(O)c(NS(C)(=O)=O)c1 quantity=pEC50 valuereported=10.05
smilesnotation=CC(C)(Cc1cccc(CC(=O)NCc2ccc(F)cc2)c1)NC[C@H](O)c1ccc(O)c(NS(C)(=O)=O)c1 quantity=pEC50 valuereported=10.52
smilesnotation=Cc1ccc(CNC(=O)Cc2cccc(CC(C)(C)NC[C@H](O)c3ccc(O)c(NS(C)(=O)=O)c3)c2)cc1 quantity=pEC50 valuereported=10.15
